# System Under Test: G-protein coupled bile acid receptor 1 (Homo sapiens) (UniProt Q8TDU6)
# Sequence (Q8TDU6 whole entry): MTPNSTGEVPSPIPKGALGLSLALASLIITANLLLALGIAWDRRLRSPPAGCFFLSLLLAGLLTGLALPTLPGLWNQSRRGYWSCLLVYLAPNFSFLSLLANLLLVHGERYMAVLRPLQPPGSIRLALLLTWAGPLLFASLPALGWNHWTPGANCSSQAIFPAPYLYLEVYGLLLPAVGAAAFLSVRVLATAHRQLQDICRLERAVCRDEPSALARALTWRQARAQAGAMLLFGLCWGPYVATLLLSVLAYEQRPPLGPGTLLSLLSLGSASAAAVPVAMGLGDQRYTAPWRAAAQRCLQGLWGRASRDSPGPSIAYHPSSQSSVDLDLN
# Assay Summary: Agonist activity at human TGR5 expressed in HEK293 cells at 10 uM incubated for 30 mins by SEAP reporter gene based assay relative to control
# Type: functional, cell-based
# Test Context: filed as agonist
Field: Activity. Provide a value for each of the compounds that follow.
Answers are plain numbers, in %.

1. CC[C@H]1[C@@H](O)[C@H]2[C@@H]3CC[C@@H]([C@H](C)C(=O)NCCS(=O)(=O)O)[C@H]3[C@H](C)C[C@@H]2[C@@]2(C)CC[C@@H](O)C[C@@H]12
61
2. CC[C@H]1[C@@H](O)[C@H]2[C@@H]3CC[C@@H]([C@H](C)CCCC(=O)NCCS(=O)(=O)O)[C@H]3[C@H](C)C[C@@H]2[C@@]2(C)CC[C@@H](O)C[C@@H]12
99
3. CC[C@H]1[C@@H](O)[C@H]2[C@@H]3CC[C@H]([C@H](C)CCCC(=O)O)[C@H]3[C@H](C)C[C@@H]2[C@@]2(C)CC[C@@H](O)C[C@@H]12
54
4. CC[C@H]1[C@@H](O)[C@H]2[C@@H]3CC[C@H]([C@H](C)CCC(=O)NCCS(=O)(=O)O)[C@H]3[C@H](C)C[C@@H]2[C@@]2(C)CC[C@@H](O)C[C@@H]12
99
5. CC[C@H]1[C@@H](O)[C@H]2[C@@H]3CC[C@@H]([C@H](C)CCC(=O)NCCS(=O)(=O)O)[C@H]3[C@H](C)C[C@@H]2[C@@]2(C)CC[C@@H](O)C[C@@H]12
99
6. C[C@H](CCCCC(=O)O)[C@@H]1CC[C@@H]2[C@@H]1[C@H](C)C[C@H]1[C@H]2[C@H](O)C[C@@H]2C[C@H](O)CC[C@@]21C
43
7. CC[C@H]1[C@@H](O)[C@H]2[C@@H]3CC[C@@H]([C@H](C)CC(=O)O)[C@H]3[C@H](C)C[C@@H]2[C@@]2(C)CC[C@@H](O)C[C@@H]12
42
8. C[C@H](CCCC(=O)NCCS(=O)(=O)O)[C@@H]1CC[C@@H]2[C@@H]1[C@H](C)C[C@H]1[C@H]2[C@H](O)C[C@@H]2C[C@H](O)CC[C@@]21C
62

Quick request: Activity for each listed item, please.
1. CC[C@H]1[C@@H](O)[C@H]2[C@@H]3CC[C@@H]([C@H](C)CCC(=O)O)[C@H]3[C@H](C)C[C@@H]2[C@@]2(C)CC[C@@H](O)C[C@@H]12
2. CC[C@H]1[C@@H](O)[C@H]2[C@@H]3CC[C@@H]([C@H](C)CCCC(=O)O)[C@H]3[C@H](C)C[C@@H]2[C@@]2(C)CC[C@@H](O)C[C@@H]12

Output:
1: 62; 2: 69

Quick request: Activity for each listed item, please.
1. C[C@H](CCC(=O)NCCS(=O)(=O)O)[C@@H]1CC[C@@H]2[C@@H]1[C@H](C)C[C@H]1[C@H]2[C@H](O)C[C@@H]2C[C@H](O)CC[C@@]21C
2. C[C@@H]1C[C@H]2[C@H]([C@@H]3CC[C@@H]([C@H](C)C(=O)NCCS(=O)(=O)O)[C@H]31)[C@H](O)C[C@@H]1C[C@H](O)CC[C@@]12C
3. CC[C@H]1[C@@H](O)[C@H]2[C@@H]3CC[C@@H]([C@H](C)CC(=O)NCCS(=O)(=O)O)[C@H]3[C@H](C)C[C@@H]2[C@@]2(C)CC[C@@H](O)C[C@@H]12

Output:
61
56
42
